Collected Ki for Carbonic anhydrase 12 (Homo sapiens, UniProt O43570) across several studies; compounds listed below.
quantityMeasured: Ki (nM)

# annotated cases, reported Ki shown
# query: Ki | item CC(=O)OC[C@H]1O[C@@H]([Se]c2ccc(NC(=O)c3ccc(S(N)(=O)=O)cc3)cc2)[C@H](OC(C)=O)[C@@H](OC(C)=O)[C@H]1OC(C)=O | system: Carbonic anhydrase 12 (Homo sapiens, UniProt O43570)
5.6

# query: Ki | item NS(=O)(=O)c1ccc(CCN(CCc2ccccc2)C(=O)CN(CCC(=O)O)CCc2ccccc2)cc1 | system: Carbonic anhydrase 12 (Homo sapiens, UniProt O43570)
29.7

# query: Ki | item CCCN(CCC)S(N)(=O)=O | system: Carbonic anhydrase 12 (Homo sapiens, UniProt O43570)
3530

# query: Ki | item NS(=O)(=O)c1ccc(NC(=S)N[C@@H]2O[C@H](CO)[C@@H](O[C@@H]3O[C@H](CO)[C@H](O)[C@H](O)[C@H]3O)[C@H](O)[C@H]2O)cc1 | system: Carbonic anhydrase 12 (Homo sapiens, UniProt O43570)
81

# query: Ki | item CC(=O)N1N=C(c2ccc(OS(N)(=O)=O)cc2)CC1c1c(Cl)cccc1Cl (centres undefined) | system: Carbonic anhydrase 12 (Homo sapiens, UniProt O43570)
43.7

I. NS(=O)(=O)c1ccc(-c2ccc(C(O)c3ccccc3)cc2)cc1 (centres undefined)
II. CCC(=O)OC[C@H]1O[C@@H](n2cc(-c3ccc(S(N)(=O)=O)cc3)nn2)[C@H](OC(=O)CC)[C@@H](OC(=O)CC)[C@H]1OC(=O)CC
III. NS(=O)(=O)c1cc(-c2nc(C3CC3)no2)cs1
Ordering criterion: Ki; begin with the maximum. Lab note: final answer is the ordered label list.
I, III, II
(I: 81.1 nM, III: 10.3 nM, II: 5.4 nM)

1. COc1ccccc1NC(=O)Nc1ccc(S(N)(=O)=O)cc1
2. COC(=O)c1ccc(-c2ccc(S(N)(=O)=O)cc2)cc1
3. NS(=O)(=O)c1cc(C(=O)N2CCCC2)c(Cl)cc1S
Ordering criterion: Ki; begin with the maximum. Lab note: final answer is the ordered label list.
1, 2, 3
(1: 61.2 nM, 2: 35.2 nM, 3: 20 nM)

A. CCN(CC)CCC(=O)N(CCc1ccc(S(N)(=O)=O)cc1)Cc1ccccc1
B. Cc1c(CC(=O)O)c(=O)oc2cc3occ(-c4ccc(F)cc4)c3cc12
C. CC(=O)N1N=C(c2ccc(OS(N)(=O)=O)cc2)CC1c1ccc(C)cc1 (centres undefined)
Ordering criterion: Ki; begin with the maximum. Lab note: final answer is the ordered label list.
A, C, B

----------
Collected Ki for Carbonic anhydrase 12 (Homo sapiens, UniProt O43570) across several studies; compounds listed below.
quantityMeasured: Ki (nM)

Fill in: Ki of CC(=O)OC[C@H]1O[C@@H](O[C@H]2[C@H](OC(C)=O)[C@@H](OC(C)=O)[C@H](NC(=S)NNC(=O)c3ccc(S(N)(=O)=O)cc3)O[C@@H]2COC(C)=O)[C@H](OC(C)=O)[C@@H](OC(C)=O)[C@H]1OC(C)=O is ___
8.1

Fill in: Ki of NS(=O)(=O)c1ccc(C(=O)NNC(=S)N[C@@H]2O[C@H](CO)[C@@H](O[C@H]3O[C@H](CO)[C@@H](O)[C@H](O)[C@H]3O)[C@H](O)[C@H]2O)cc1 is ___
8.2

I. CCOc1ccc(S(=O)(=O)NCCO)cc1-c1nnc2c(n1)c(C)nn2-c1ccc(C)cc1
II. NS(=O)(=O)c1ccc(/N=c2\scc(-c3ccc(Br)cc3)n2-c2ccccc2)cc1
III. NCCNCCN
IV. NCCCNCCCCNCCCN
V. NS(=O)(=O)c1ccc(NC(=O)CN2C(=O)NC3(CCCC3)C2=O)cc1
List by increasing Ki. Lab note: final answer is the ordered label list.
V, I, II, III, IV

----------
Collected Ki for Carbonic anhydrase 12 (Homo sapiens, UniProt O43570) across several studies; molecules listed below.
quantityMeasured: Ki (nM)

# query: Ki | item CC1CCCC2(C1)NC(=O)N(CC(=O)Nc1ccc([Se]Cc3ccc(S(N)(=O)=O)cc3)cc1)C2=O (stereo not given) | system: Carbonic anhydrase 12 (Homo sapiens, UniProt O43570)
8.6

# query: Ki | item NS(=O)(=O)c1ccc(-c2ccc([N+](=O)[O-])cc2)cc1 | system: Carbonic anhydrase 12 (Homo sapiens, UniProt O43570)
7.4

I. CC1=NN(c2ccc(Cl)cc2Cl)C(=O)/C1=N/Nc1ccc(S(N)(=O)=O)cc1
II. NS(=O)(=O)c1cccc(NC(=O)N2CCCCC2)c1
Of the two listed items, which has the higher Ki? First: I Second: II Answer format: the label of the selected item.
II

----------
Collected Ki for Carbonic anhydrase 12 (Homo sapiens, UniProt O43570) across several studies; compounds listed below.
quantityMeasured: Ki (nM)

# annotated cases, reported Ki shown
Fill in: Ki of N=C(N)Nc1ccc(C(=O)O)cc1 is ___
480

Fill in: Ki of Nc1nnc(S(N)(=O)=O)s1 is ___
34

Fill in: Ki of NS(=O)(=O)c1ccc(CCNC(=O)CN2C(=O)NC3(CCCCCC3)C2=O)cc1 is ___
62.9

Fill in: Ki of NS(=O)(=O)c1ccc(NC(=O)Cc2cccs2)cc1 is ___
21

Fill in: Ki of Cc1nn(-c2ccccc2)c2c1c(=O)oc1ccc(NC(=O)Nc3ccccc3)cc12 is ___
583

I. O=C1C=CC[C@H](C[C@@H](O)CCc2cc(Br)c(O)cc2Br)O1
II. O=C(/C=C/c1ccc(O)cc1)OCc1ccccc1
III. CC(=O)OC[C@H]1O[C@@H](NC(=S)Nc2ccc(S(N)(=O)=O)cc2)[C@H](OC(C)=O)[C@@H](OC(C)=O)[C@@H]1O[C@H]1O[C@H](COC(C)=O)[C@@H](OC(C)=O)[C@H](OC(C)=O)[C@H]1OC(C)=O
IV. Cc1ccc2c(c1)C(=O)N(Cc1ccc(S(N)(=O)=O)cc1)C2=O
Ordering criterion: Ki; begin with the maximum. Lab note: final answer is the ordered label list.
II, I, III, IV
(II: 29400 nM, I: 10800 nM, III: 10.1 nM, IV: 0.85 nM)

----------
Collected pKi for UniProt O43570 across several studies; compounds listed below.
pKi: −log10 of the molar value.
quantityMeasured: pKi

Fill in: pKi of CC1=NN(c2ccc(Cl)cc2)C(=O)/C1=N/Nc1cccc(S(N)(=O)=O)c1 is ___
7.04

Fill in: pKi of NS(=O)(=O)c1ccc(CCN2C(=O)c3c(Br)c(Br)c(Br)c(Br)c3C2=O)cc1 is ___
7.99

Fill in: pKi of NS(=O)(=O)c1ccc2c(c1)C1C=CCC1C(c1ccccc1Cl)N2 (racemic) is ___
6.59

P. COc1cc(/C=C/C(=O)OCCCCO[N+](=O)[O-])ccc1OC(=O)c1cccc(S(=O)(=O)Nc2nnc(S(N)(=O)=O)s2)c1
Q. CC(=O)OC[C@H]1O[C@@H](S(=O)(=O)NCCc2ccc(S(N)(=O)=O)cc2)[C@H](OC(C)=O)[C@@H](OC(C)=O)[C@@H]1OC(C)=O
R. O=C(O)c1cc(O)ccc1O
S. COC(=O)C(CC(C)C)NC(=O)Nc1ccc(S(N)(=O)=O)cc1 (stereo unspecified)
T. O=C1c2ccccc2S(=O)(=O)N1Cc1cccc(F)c1
List by increasing pKi. Lab note: final answer is the ordered label list.
R, T, S, P, Q

P. CC1=NN(c2ccccc2)C(=O)/C1=N/Nc1ccc(S(N)(=O)=O)cc1
Q. NS(=O)(=O)c1ccc(-c2noc(-c3ccncc3)n2)cc1
Of the two listed items, which has the higher pKi? First: P Second: Q Answer format: the label of the selected item.
Q

1. NS(=O)(=O)c1ccc(OCc2ccccc2)cc1
2. Cn1nc2c(c1Cc1ccccc1)c(=O)oc1ccccc12
Of the two listed items, which has the higher pKi? First: 1 Second: 2 Answer format: the label of the selected item.
1
(1: 7.98, 2: 7.48)

----------
Collected Ki for Carbonic anhydrase 12 (Homo sapiens, UniProt O43570) across several studies; molecules listed below.
quantityMeasured: Ki (nM)

Fill in: Ki of CC1=NN(c2ccc(Cl)cc2Cl)C(=O)/C1=N/Nc1cccc(S(N)(=O)=O)c1 is ___
273

a. NS(=O)(=O)c1ccc2[nH]c(-c3cscn3)nc2c1
b. CC(=O)OC[C@H]1O[C@@H](S(=O)(=O)NCc2ccc(S(N)(=O)=O)cc2)[C@H](OC(C)=O)[C@@H](OC(C)=O)[C@@H]1O[C@H]1O[C@H](COC(C)=O)[C@@H](OC(C)=O)[C@H](OC(C)=O)[C@H]1OC(C)=O
Among a and b , whose measured Ki is the smaller figure? Answer format: the label of the selected item.
b
